# system-tested: Histone deacetylase 1 (Homo sapiens)
# Sequence (Q13547 whole entry): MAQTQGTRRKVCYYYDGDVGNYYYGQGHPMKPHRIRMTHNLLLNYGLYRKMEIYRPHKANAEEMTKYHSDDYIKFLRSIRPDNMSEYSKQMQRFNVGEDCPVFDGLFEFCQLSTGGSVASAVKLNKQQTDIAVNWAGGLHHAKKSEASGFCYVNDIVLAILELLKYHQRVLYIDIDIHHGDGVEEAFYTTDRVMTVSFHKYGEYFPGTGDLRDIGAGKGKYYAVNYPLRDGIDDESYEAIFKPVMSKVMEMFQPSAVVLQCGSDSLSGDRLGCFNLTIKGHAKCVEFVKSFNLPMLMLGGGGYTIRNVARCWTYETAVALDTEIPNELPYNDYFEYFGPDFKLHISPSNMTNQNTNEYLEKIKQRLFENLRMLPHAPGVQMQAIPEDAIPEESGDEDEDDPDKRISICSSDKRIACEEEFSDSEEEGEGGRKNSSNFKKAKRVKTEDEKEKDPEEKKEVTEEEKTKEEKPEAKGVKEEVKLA
# assay-protocol: Inhibition of human recombinant C-terminal His/FLAG-tagged HDAC1 using Boc-Lys-(epsilon-Ac)-AMC as fluorogenic substrate incubated for 90 mins by fluorescence based assay
measured-metric: IC50 (nM)
Please reply with the bare figure in nM and do not write the unit itself.

Answered cases to consult:
Nc1ccccc1NC(=O)CCCCCNc1ccccc1 : 1200
C[C@H](Nc1ccccc1)c1ccc(C(=O)Nc2ccccc2N)cc1 : 2400
CN(Cc1ccc(C(=O)Nc2ccccc2N)cc1)c1ccccc1 : 1000
C[C@@H](Nc1ccccc1)c1ccc(C(=O)Nc2ccccc2N)cc1 : 1300
CC(Nc1ccccc1)c1ccc(C(=O)Nc2ccccc2N)cc1 (stereo not drawn) : 2300

Q. Item under review: Nc1ccccc1NC(=O)c1ccc(C(=O)Nc2ccccc2)cc1 . Reported IC50?
A. 3000

Q. Item under review: Nc1ccccc1NC(=O)CCCCCC(=O)c1ccccc1 . Reported IC50?
A. 1900

Q. Item under review: Nc1ccccc1NC(=O)c1ccc(CNc2ccccc2)cc1 . Reported IC50?
A. 1000
